Measured values drawn from patent US20210317201A1 for this set.

# testTarget: T1, recombinant human IL-23 (human, UniProt P29460 23-328)
# T1 construct: also called Human recombinant IL-23
# T1 sequence 1: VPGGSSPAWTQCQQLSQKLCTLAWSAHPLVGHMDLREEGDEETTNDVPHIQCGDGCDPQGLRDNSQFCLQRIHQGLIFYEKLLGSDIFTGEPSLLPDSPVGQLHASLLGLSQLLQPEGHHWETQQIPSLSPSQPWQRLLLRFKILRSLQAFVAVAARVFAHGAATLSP
# T1 sequence 2: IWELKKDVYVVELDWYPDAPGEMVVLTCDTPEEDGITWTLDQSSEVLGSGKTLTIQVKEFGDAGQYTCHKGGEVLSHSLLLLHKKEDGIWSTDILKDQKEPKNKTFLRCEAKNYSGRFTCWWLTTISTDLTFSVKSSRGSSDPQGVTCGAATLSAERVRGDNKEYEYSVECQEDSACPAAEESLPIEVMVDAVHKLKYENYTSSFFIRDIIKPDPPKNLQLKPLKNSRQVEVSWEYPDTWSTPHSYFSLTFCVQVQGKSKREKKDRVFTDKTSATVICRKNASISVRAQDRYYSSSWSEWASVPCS
# testMethodNotes: BLI, Fortebio Octet; hybridoma-derived antibody
readoutName: koff (s⁻¹)
Write the number in s⁻¹ without appending the unit.

Memo: 34G3 (antibody, V domains shown, Mouse monoclonal antibody from hybridoma; also called 34G3Vk; 34G3VH) VH: EFQLQQSGPELVKPGASVKISCKASGYSFTDYNMNWVKQSKGKSLEWIGVIIPNYGFTSYNQNFKGKATLTVDQSSSTAHMQLNSVTSEDSAVYYCVRDGGILLWYLDVWGTGTTVTVSS VL: DVVMTQTPLSLPVSLGDQASISCRSSQSLVHSNGNTYLHWYLQKPGQSPKLLIYKVSNRFSGVPDRFSGSGSGTDFTLKISRVEAEDLGVYFCSQSTHVPYTFGGGTKLEIN , reported koff: 3.1e-05
